These measurements were taken from patent US7226603.

This section presents binders with their documented pKd values.
Target: T1, HBV core antigen (hepatitis B virus), P03146
T1 chain: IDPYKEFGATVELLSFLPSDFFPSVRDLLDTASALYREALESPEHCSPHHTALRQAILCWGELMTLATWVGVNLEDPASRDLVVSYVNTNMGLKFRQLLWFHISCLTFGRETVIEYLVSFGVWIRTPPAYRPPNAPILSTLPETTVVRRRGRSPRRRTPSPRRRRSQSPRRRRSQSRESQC
Assay: relative dissociation constant (KD^Rel), fd fusion phage with HBV core antigen in solution
Keep it numeric: pKd is minus log10 of the concentration in mol/L.

For orientation, consider the following solved cases.
> print(dat)
                                     binder  measured.result
1  ADGALLGRMKRA (modifications not checked) [fd fusion phage carrying … (SEQ ID NO: 16)]             6.74
2  ADGYQRSLLGRMKGA (modifications not checked) [fd fusion phage carrying … (SEQ ID NO: 25)]             9.06
3  ADGSRSSLLGRMKGA (modifications not checked) [fd fusion phage carrying … (SEQ ID NO: 20)]             8.71
4  ADGTLLGRMKLA (modifications not checked) [fd fusion phage carrying … (SEQ ID NO: 17)]             7.70
5  ADRSLLGRMKGA (modifications not checked) [fd fusion phage carrying … (SEQ ID NO: 19)]             8.96

Consider ADGTQRSLLGRMKGA (modifications not checked) [fd fusion phage carrying … (SEQ ID NO: 26)] . Its measured pKd is 9.08

Measured pKd, ADGAHRSLLGRMKGA (modifications not checked) [fd fusion phage carrying … (SEQ ID NO: 24)] : 9.03

Quick note, pKd for ADGPRSSLLGRMKGA (modifications not checked) [fd fusion phage carrying … (SEQ ID NO: 23)] landed at 9.08
